- Experimental Details: Cytotoxicity against human EKVX cells
- Type: functional
- Recorded Conditions: read-out: pLC50 (the source's name) (converted)

{"Structure": "COc1cc(/C=C/c2cc(O)c3c(CC=C(C)C)c[nH]c3c2)cc2c1O[C@]1(C)CC[C@@H](O)C(C)(C)[C@H]1C2", "CC50": "50.1 µM"}
{"Structure": "COc1cc(/C=C/c2cc(O)c3ccn(C)c3c2)cc2c1O[C@]1(C)CC[C@@H](O)C(C)(C)[C@H]1C2", "CC50": "> 100 µM"}
{"Structure": "COc1cc(/C=C/c2cc(O)c3c(C/C=C(\\C)CCC=C(C)C)c[nH]c3c2)cc2c1O[C@]1(C)CC[C@@H](O)C(C)(C)[C@H]1C2", "CC50": "> 100 µM"}
{"Structure": "COc1cc(/C=C/c2cc(OC)c3c(C/C=C(\\C)CCC=C(C)C)c[nH]c3c2)cc2c1O[C@]1(C)CC[C@@H](O)C(C)(C)[C@H]1C2", "CC50": "> 100 µM"}
{"Structure": "COc1cc(/C=C/c2cc(O)c3c(c2)C[C@@H]2C(C)(C)[C@H](O)CC[C@@]2(C)O3)cc2[nH]cc(CC=C(C)C)c12", "CC50": "81.3 µM"}
{"Structure": "CC1(C)[C@H](O)CC[C@@]2(C)Oc3c(O)cc(/C=C/c4cc(O)c5cc[nH]c5c4)cc3C[C@H]12", "CC50": "> 100 µM"}
{"Structure": "COc1cc(/C=C/c2cc(O)c3cc(CC=C(C)C)[nH]c3c2)cc2c1O[C@]1(C)CC[C@@H](O)C(C)(C)[C@H]1C2", "CC50": "> 100 µM"}
{"Structure": "COc1cc(/C=C/c2cc(O)c3cc[nH]c3c2)cc2c1O[C@]1(C)CC[C@@H](O)C(C)(C)[C@H]1C2", "CC50": "91.2 µM"}
{"Structure": "COc1cc(/C=C/c2cc(OC)c3c(CC=C(C)C)c[nH]c3c2)cc2c1O[C@]1(C)CC[C@@H](O)C(C)(C)[C@H]1C2", "CC50": "> 100 µM"}
{"Structure": "COc1cc(/C=C/c2cc(O)c3c(c2)C[C@@H]2C(C)(C)[C@H](O)CC[C@@]2(C)O3)cc2c1ccn2C", "CC50": "64.6 µM"}
{"Structure": "COc1cc(/C=C/c2cc(OC)c3cc[nH]c3c2)cc2c1O[C@]1(C)CC[C@@H](O)C(C)(C)[C@H]1C2", "CC50": "> 100 µM"}
